# System: CP256
# assay_comment: qHTS profiling for inhibitors of Plasmodium falciparum proliferation (AID 504749); note: nearly all actives have a fitted effect of over 60% in size
# test_context: P. falciparum in erythrocytes, SYBR Green DNA, 72 h; series mostly up to 28.7 µM
Records with an inconclusive call do not appear. Calls of active or inactive are those of the source. Calls come from the whole dose curve; as a rule, active = well fitted inhibition curve with a large enough effect; inconclusive = small, poorly fitted or top-dose-only effect; inactive = flat fitted curve, though single readings scatter.
Possible outcomes: class 1 = active, class 0 = inactive

* OC[C@H](S)CS | class 0
* CN1[C@@H]2CC(OC(=O)[C@@H](CO)c3ccccc3)C[C@@H]1[C@H]1O[C@H]12 (stereo partly specified) | class 0
* NS(=O)(=O)c1cc2c(cc1Cl)N[C@H](Cc1ccccc1)NS2(=O)=O | class 0
* CN(C)[C@H]1C(=O)C(C(=O)NCN2CCCC2)=C(O)[C@]2(O)C(=O)C3=C(O)c4c(O)cccc4[C@](C)(O)[C@H]3C[C@H]12 | class 0
* C[N+]1(C)[C@@H]2CC(OC(=O)[C@@H](CO)c3ccccc3)C[C@@H]1[C@H]1O[C@H]12 (stereo partly specified) | class 0
* C=C1CC[C@H](O)C/C1=C/C=C1\CCC[C@]2(C)[C@@H]([C@H](C)CCCC(C)C)CC[C@@H]12 | class 0
* O=C(O)[C@@H](S)[C@H](S)C(=O)O | class 1
* COc1cccc2c1C(=O)c1c(O)c3c(c(O)c1C2=O)C[C@](O)(C(=O)CO)C[C@@H]3O[C@H]1C[C@H](N)[C@@H](O)[C@H](C)O1 | class 0
* CC(C)(C)NC[C@@H](O)c1ccc(O)c(CO)n1 | class 0
* CC(=O)N1CCN(c2ccc(OC[C@@H]3CO[C@@](Cn4ccnc4)(c4ccc(Cl)cc4Cl)O3)cc2)CC1 | class 0
* Cc1onc(-c2c(F)cccc2Cl)c1C(=O)N[C@@H]1C(=O)N2[C@H]1SC(C)(C)[C@H]2C(=O)O | class 0
* O=C(O)[C@@H](O)[C@@H](O)[C@H](O)C(=O)CO | class 0
* C[C@H](CCC(=O)O)[C@H]1CC[C@@H]2[C@H]3[C@@H](C[C@@H](O)[C@]21C)[C@]1(C)CC[C@H](O)C[C@@H]1C[C@@H]3O | class 0
* CC(C)(C)c1ccc(CN2CCN([C@H](c3ccccc3)c3ccc(Cl)cc3)CC2)cc1 | class 1
* CC1(C)[C@@H]2CC[C@]1(C)[C@@H](OC(=O)CSC#N)C2 | class 0
* Cc1cn([C@H]2C[C@H](N=[N+]=[N-])[C@H](CO)O2)c(=O)[nH]c1=O | class 0

====

# assay_comment: Stat Signaling Pathway (AID 446);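 note: ME-180 cervical cancer cells given 40 pM IL-6 alongside compound; SIE-controlled beta-lactamase reporter measured as 460/530 nm FRET emission ratio; % is set by controls: 0 for no effect and ±100 for the full control effect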
# test_context: ME-180 SIE beta-lactamase reporter, IL-6 stimulated, 5 h; at 7.69 µM (top of the series) unless noted
# Procedure: NCGC Assay Overview: The IL-6/STAT signaling pathway was assayed in ME-180 cervical carcinoma cells by a beta-lactamase reporter gene controlled by a STAT Inducible Element (SIE). This reporter is induced by IL-6 at 40 pM AC50 and inhibited by the pan JAK inhibitor, 2-(1,1-Dimethylethyl)-9-fluoro-3,6-dihydro-7H-benz[h]-imidaz[4,5-f]isoquinolin-7-one, at approximately 10 nM AC50. Plated cells were incubated overnight and on the following day, stimulated with 40 pM IL-6 for 5 hrs. […]
Inconclusive results are not listed.
Here the recorded activity, negative = inhibition is given for each entry.
quantity: activity, negative = inhibition (%)

* CC[C@H]1CN(C)[C@H]2Cc3c([nH]c4ccccc34)C(=O)C[C@H]1[C@H]2C(=O)OC | 8.84
* S=c1nc(-c2nc(=S)[nH]c3c2CCCCCCCCCC3)c2c([nH]1)CCCCCCCCCC2 | 9.8
* Cn1ccnc1C[C@@](C)(O)c1ccccc1 | 8.21
* CC1=C[N+](=O)c2ccccc2[N+]1=O | 0.919
* CCNc1ncc2nc(CCc3ccccc3)c(=O)n(C)c2n1 | -0.83
* Cc1ccc(-[n+]2cc(=O)o[nH]2)cc1 | 12.6
* COc1ccc2[nH]c3cc4c(=O)c5cc(OC)ccc5[nH]c4cc3c(=O)c2c1 | -1.86
* O=C(O)CSc1cc(-c2ccccc2)nc2ccccc12 | -6.65
* C[C@H](CCC(=O)NN)[C@@H]1CC[C@@H]2[C@H]3CC[C@H]4C[C@@H](O)CC[C@@]4(C)[C@@H]3CC[C@]21C | -5.92
* CC(C)Cn1cnc2c(Sc3c([N+](=O)[O-])ncn3C)nc(N)nc21 | 11.4

====

Here the recorded activity change, negative = inhibition is given for each entry.
# assay_comment: AP1 Signaling Pathway (AID 357);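 note: ME-180 reporter cells stimulated with EGF at its EC50 level; % is set by controls: 0 for no effect and ±100 for the full control effect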
# test_context: ME-180 (cervical carcinoma) AP-1-bla reporter, EGF-induced, beta-lactamase ratio, 5 h; at 7.69 µM (top of the series) unless noted
# Protocol: NCGC Assay Overview: Activator protein-1 (AP-1), a transcription factor, plays an important role in tumor genesis by regulating genes involved in cell proliferation, differentiation, apoptosis, and angiogenesis. AP-1 activity is induced by a complex network of signaling pathways that involves extracellular signals, such as growth factors. […] Library compounds were measured for their ability to modulate positively or negatively the action of EC50 EGF on reporter gene activity. […]
Inconclusive results are not listed. Calls of active or inactive are those of the source. Calls follow the shape of the dose curve; as a rule, active = well fitted curve in either direction with a large enough effect (not every such curve was filed as active); inconclusive = small, poorly fitted or top-dose-only effect, or another doubt; inactive = flat fitted curve, though single readings scatter.
quantity: activity change, negative = inhibition

* N[C@@](CCc1ccccc1)(C(=O)O)c1ccccc1 | 4.96% (inactive)
* OCCn1cnc2c(SCc3ccccc3)ncnc21 | -4.68% (inactive)
* Cc1ccccc1CNc1ncnc2c1ncn2[C@@H]1O[C@@H](CO)[C@H](O)[C@@H]1O | 0.479% [at 38 µM] (inactive)
* NC(N)=Nc1nc2ccc([N+](=O)[O-])cc2[nH]1 | 0.0978% (inactive)
* NC(N)=N/N=C\c1ccc(C2CCNCC2)cc1 | 7.39% (inactive)
* CC(C)(C)c1ccc(O)c(CN(Cc2c(O)ccc3ccccc23)C2CCCCC2)c1 | -7.92% (inactive)
* O=C(O)CCC(O)=C1S(=O)(=O)OCCOS1(=O)=O | -1.99% (inactive)
* COc1cc(C(=O)O)c([N+](=O)[O-])c(OC)c1OC | 4.41% (inactive)
* CC(C)C[C@@H](N)C(=O)Nc1ccc2ccccc2c1 | 9.25% (inactive)
* O=C(C[C@@H](C(=O)O)N1CCOCC1)c1ccccc1 | 8.49% (inactive)
* Fc1cccc(Cl)c1/C=N\N=C1c2ccccc2-c2ccccc21 | 13.6% (inactive)
* CN(C)CC(C)(C)CN1c2ccccc2Sc2ccccc21 | 24% (inactive)

====

# assay_comment: MultiTox-Fluor Cytotoxicity Assay - LYMP1-003 - Dead Cells (AID 961);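 note: cells exposed to compound for 16 h at 37 °C; nearly all actives have a fitted effect of over 70% in size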
# test_context: LYMP1-003 lymphoblastoid cells, dead-cell protease fluorescence; series mostly up to 92.2 µM
# From the text: NIH Chemical Genomics Center [NCGC] NIH Molecular Libraries Screening Centers Network [MLSCN] National Institutes of Environmental Health Sciences [NIEHS] National Toxicology Program [NTP] We have developed a 1536-well cell-based assay for quantitative high throughput screening (qHTS) against a number of cell lines to determine in vitro cytotoxicity of small molecules. […] 8. Detection; dead-cell fluorescence (Ex/Em=485/520); EnVision plate reader […]
Calls of active or inactive are those of the source. Calls follow the shape of the dose curve; as a rule, active = well fitted cell-killing curve with a large enough effect; inconclusive = small, poorly fitted or top-dose-only effect, or effect the other way; inactive = flat fitted curve, though single readings scatter.
Possible outcomes: active, inactive

• CC(=O)OC1CC(C)OC(C)O1 (stereo not given) = inactive
• CCCCCCc1ccc(-c2ccc(C#N)cc2)cc1 = inactive
• CC(=O)OC(C(=O)c1ccccc1)c1ccccc1 (stereo not given) = inactive
• Brc1cc(Br)c(Oc2cc(Br)c(Br)cc2Br)cc1Br = inactive
• CC/C=C/C/C=C/C/C=C/CCCCCCCC(=O)OCC = active
• C=CC(C)(O)CCCC(C)CCCC(C)CCCC(C)C (stereo not given) = inactive
• CC(=O)c1ccc(Cl)c(Cl)c1Cl = inactive
• N=C1C=CC(=C(c2ccc(N)cc2)c2ccc(N)cc2)C=C1 = inactive
• O=C(O)c1ccc([N+](=O)[O-])cc1 = inactive
• CCCCCCCCC1CO1 (stereo not given) = inactive
• CC(C)OCC1CO1 (stereo not given) = inactive
• C=CC(=O)OCCCCCCOC(=O)C=C = active
• Cc1ccc(S(N)(=O)=O)cc1 = inactive
• C=Cc1cccc(C)c1 = inactive
• c1ccc(SCCSc2ccccc2)cc1 = inactive
• Cc1ccc(O)c(N)c1 = inactive
• CCc1ccc(C(c2ccc(CC)cc2)C(Cl)Cl)cc1 = inactive
• CCCCC(CC)COC(=O)COc1ccc(Cl)cc1Cl (stereo not given) = inactive
• O=[N+]([O-])c1ccc(F)cc1F = inactive
• Cc1ccc(N)cc1[N+](=O)[O-] = inactive
• Cc1c(N)cccc1Cl = inactive
• CC(=O)OCc1ccc2c(c1)OCO2 = inactive
• Cc1cc(=O)oc2cc(O)cc(O)c12 = inactive
• Oc1c(Cl)cc(Cl)c(Cl)c1Cl = inactive
• Nc1cc(C(=O)O)c(O)c(S(=O)(=O)O)c1 = inactive
• CCOC(=O)C1OC1c1ccccc1 (stereo not given) = inactive
• CC(=O)Nc1cccc(C)c1 = inactive
• CCCCOC(=O)COc1ccc(Cl)cc1Cl = inactive
• C/C=C1/C(=O)C[C@H]2[C@@H]3CCC4=CC(=O)CC[C@]4(C)[C@H]3CC[C@]12C = active
• c1c[nH]cn1 = inactive
